Value source: paper PMC9482650

Reported pKd is given for each of the following binders.
Target: Inadl_8, Q8NI35
Sequence (Q8NI35 1425-1530): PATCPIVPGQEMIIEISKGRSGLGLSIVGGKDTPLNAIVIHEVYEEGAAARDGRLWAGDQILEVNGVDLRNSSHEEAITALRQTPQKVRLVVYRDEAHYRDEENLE
Assay: holdup assay
Parameters: key: below the threshold = too weak to quantify, mostly under pKd 3.1 to 4
Conditions: plain residues with an end cap or a label only (N-terminal biotin on a linker: ado-ado)
READOUT TYPE: pKd

INSERT INTO measurements (binder, readout_type, obs_value) VALUES
  ('RRISSLESEV [GRIN2C, Q14957]', 'pKd', 3.58),
  ('TLPRKRMSSI [GPRC6A, Q5T6X5]', 'pKd', 3.77),
  ('HSGYRLNDYV [CLDN14, O95500]', 'pKd', 3.87);
